Settings: in NMP, 318.15 K
Endpoint: solubility (mole fraction)
The answer should be written as a number, with no unit following it.

The measured solubility (mole fraction) associated with O=C1OC(=O)[C@H]2[C@@H]1[C@@H]1C=C[C@H]2C1 reads 0.245

----------
Conditions: in NMP, 298.15 K
Endpoint: solubility (mole fraction)
The answer should be written as a number, with no unit following it.

The measured solubility (mole fraction) associated with O=C1OC(=O)[C@H]2[C@@H]1[C@@H]1C=C[C@H]2C1 reads 0.172

----------
Conditions: in NMP, 288.15 K
Endpoint: solubility (mole fraction)
The answer should be written as a number, with no unit following it.

The measured solubility (mole fraction) associated with O=C1OC(=O)[C@H]2[C@@H]1[C@@H]1C=C[C@H]2C1 reads 0.14
